- target.system: HIV-1 Env of isolate ZM249 (HIV-1)
- protocol.notes: cell-based or functional assay
measured.parameter: IC50, pseudovirus neutralization (TZM-bl)

| binder | result |
| --- | --- |
| 1489_I13 (PG16) (TCN-120) (antibody, V domains shown) VH: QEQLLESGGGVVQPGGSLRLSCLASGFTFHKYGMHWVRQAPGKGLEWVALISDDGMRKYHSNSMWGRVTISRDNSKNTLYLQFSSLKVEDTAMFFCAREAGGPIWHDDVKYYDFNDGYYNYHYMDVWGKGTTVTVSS VL: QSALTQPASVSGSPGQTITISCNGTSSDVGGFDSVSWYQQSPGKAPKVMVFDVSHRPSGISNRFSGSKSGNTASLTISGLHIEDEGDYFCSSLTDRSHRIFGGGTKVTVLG | < 0.01 µg/mL |
